The measured values listed here are drawn from ChEMBL document CHEMBL1143602.

# target.entity: Heat shock protein HSP 90-alpha (Mus musculus, UniProt P07901)
# assay.name: Displacement of 5 nM GM-BODIPY from mouse heat shock protein HSP90-alpha
pEC50: −log10 of the molar value.
# class assignment by measured pEC50: b0: < 5; b1: ≥ 5 and < 6; b2: ≥ 6

CCCCn1c(S(=O)(=O)c2cc(OC)c(OC)c(OC)c2Cl)nc2c(N)ncnc21: b1
CCCCn1c([S+]([O-])c2cccc(OC)c2)nc2c(N)ncnc21 (stereo unspecified): b1
COc1cc(S(=O)(=O)c2nc3c(N)ncnc3n2CCOC(C)C)cc(OC)c1OC: b0
C#CCCCn1c(Sc2cc(OC)ccc2I)nc2c(N)ncnc21: b2
C#CCCCn1c(Sc2cc(OC)c(OC)c(OC)c2Cl)nc2c(N)ncnc21: b2

Consider `C#CCCCn1c(Sc2ccc(Cl)cc2)nc2c(N)ncnc21` . To which pEC50 class does it belong?
b1

Kindly identify the class of `C#CCCCn1c(Sc2cc(OC)ccc2OC)nc2c(N)ncnc21` .
b2

# bin label for `CCCCn1c(Sc2cc(OC)c(OC)c(OC)c2)nc2c(N)ncnc21`
b1
